Would you kindly list Percent Effect for each of these compounds?
Test system: Trypanosoma cruzi
Assay: Trypanosoma cruzi phosphomannomutase and mannose-1-phosphate guanylyltransferase assay
Format: functional
Set-up: scale not given: direction of the effect not stated beside the values
Settings: 10 µM
# value in %; strip the unit string

Recorded Percent Effect for CC1CCN(S(=O)(=O)NCc2ccccc2Cn2cncn2)CC1 , please?
-1.54

Same thing, different compound: Cc1csc(CNC(=O)NC2CCN(c3ncccn3)CC2)n1
4.37

Lookup O=C1CCC2(CCN(Cc3cc(F)ccc3Cl)CC2)CN1C1CCCC1
3.99

Input CN1CCN(Cc2nnc(C3CCN(CC4CC4)CC3)n2C)CC1
3.13

Try this compound next: CCC(CNC(=O)Nc1cnn(CC)c1)N1CCCC1 (stereo not drawn)
-6.33

What would you report for CC(C)CCN1CCC2(CC1)CN(C(=O)c1cnccn1)CCO2 ?
0.772

Another: CC(NC(=O)Cn1cccn1)c1cccnc1 (stereo not drawn)
8.67

Cool, now Cn1cnc2c(N3CCCC3)nc(C3CCNCC3)cc21
0.965

Same again, this time with Cc1ncc(CNC2CCCN(Cc3noc(C4CC4)n3)C2)s1 (stereo not drawn)
3.01

Follow-up entry: COc1ccc(C(=O)N2CCCC(CNS(C)(=O)=O)C2)cc1F (stereo not drawn)
-3.3

Okay, and CS(=O)(=O)c1ccc(OCCNCc2ccc(F)cc2F)cc1 ?
4.37

Also check Cc1nc(C2CCCN2Cc2nc(C)c(C)o2)no1 (stereo not drawn)
-1.95

Here is the next compound: CC(C)Cc1cc(C(=O)N2CCCC(n3cncn3)C2)[nH]n1 (stereo not drawn)
1.33

Further, for Cc1ccccc1C(=O)CN1C(=O)c2ccccc2CS1(=O)=O ?
-5.41

Same question for CC(C)C(=O)NC1CCN(Cc2cccc3c2OCCO3)CC1 please.
-2.36

Entry to check: CN(C)C(=O)N1CCOCC2(CCN(c3ncccn3)C2)C1 (stereo not drawn)
6.35

Check CNS(=O)(=O)Cc1ccc(CNC(=O)c2ccc(C)[nH]c2=O)cc1 too.
6.37

Try the compound N#Cc1ccnc(N2CCN(C(=O)NC3CCS(=O)(=O)C3)CC2)c1 (stereo not drawn)
-0.464

Also, O=C(c1ncccn1)N1C[C@H]2CCC[C@@]2(COCC2CCOCC2)C1 please.
6.16

Same read-out for Cc1ccc(NC(=O)NC(C)c2nc[nH]n2)s1 (stereo not drawn) ?
-0.293

Now the same for COc1cccc(COCC(=O)N2CCC(CC(N)=O)CC2)c1
-6.77

Moving on to CCCN1CCCn2nc(CNC(=O)CCc3scnc3C)cc2C1
3.98

Next compound: CNS(=O)(=O)c1cccc(CNC(=O)c2c(C)nn(C)c2C)c1
-2.15

Entry to check: Cc1cnn(CC2CN(Cc3nccn3C)CCO2)c1 (stereo not drawn)
-1.95

Queued: CNS(=O)(=O)c1cccc(CNC(=O)c2c(C)oc(C)c2C)c1
3.79

Repeat with COCCO[C@@H]1C[C@H]2CN(C(=O)c3cnccn3)CCN2C1
-0.965

Quick one: Cc1cc(CN(C)C2CCCN(c3cccnn3)C2)on1 (stereo not drawn)
4.19

Moving on to Cc1ccc(CNC(=O)N(Cc2ccccc2F)C2CC2)cn1
-1.27

Then this compound: O=c1ccc(-c2cccs2)nn1CN1CCCCCC1
3.54

Same question, Cc1nn(C)c(C)c1CC(=O)N1CCCC(n2cccn2)C1 (stereo not drawn) this time
6.26

Also CCN1CCN(C(=O)c2ccn(C)c(=O)c2)CC1 , if possible.
-4.62

Entry to check: CCc1noc(C2CCCCN2C(=O)c2ccn(C3CCCC3)n2)n1 (stereo not drawn)
5.89

Also Cc1csc(C2CCCN(C(=O)c3cc(Cl)c[nH]3)C2)n1 (stereo not drawn) , if possible.
-5

Then what about the compound O=C(NCc1csc(Br)c1)c1ccc(=O)[nH]n1 ?
-3.18

Same again, this time with c1ccc(Oc2cc(CNCC3CNc4ccnn4C3)ccn2)cc1 (stereo not drawn)
5.85

Same for CCc1ncc2c(n1)CN(Cc1nc(C)c(C)o1)CC2
-1.76

Now the same for Cc1ncsc1-c1nnc(C2CCN(Cc3ccc(F)cc3)CC2)o1
1.19

Then this compound: Cc1ccc(C(=O)NCCCN2CCOCC2)c(Cl)c1
6.79

Cc1nc2cc(=O)[nH]n2c(C)c1CC(=O)Nc1ccc2ccccc2n1 , same question.
0.564

Another compound to check: COc1ccc(NC(=O)CCC2CCCN(Cc3ncon3)C2)c(C)c1 (stereo not drawn)
-5.36

Okay, and COc1cc(CNC(=O)c2c(C)noc2C(C)C)ccn1 ?
3.75

Repeat with O=C1NCC2(CCCN(Cc3ccccc3F)C2)Oc2ccccc21 (stereo not drawn)
-2.77

And the next one, CS(=O)(=O)N1CCC(Oc2ccc(C(=O)N3CCSCC3)cc2Cl)CC1 ?
4.37

Would you mind doing O=C(N[C@@H]1CN(c2ncccn2)[C@@H]2CCCO[C@@H]21)c1cnccn1 as well?
0.772

Same read-out for O=C(C(CNCc1ccsc1)c1ccccc1)N1CCOCC1 (stereo not drawn) ?
1.87

Then what about the compound O=C(NC1CC1)[C@H]1C[C@H]2OCC[C@H]2N(CC2CC2)C1 ?
-3.28

Repeat for the following compound: N#Cc1ccccc1CN1C[C@@H]2CC[C@H](C1)N(CC1CC1)C2=O
1.74

Then this compound: CCc1nnc2n1CCN(C(=O)COCCc1ccccc1)C2
-2.71

----------
Molecular target: Tyrosyl-tRNA synthetase, putative (Trypanosoma cruzi (strain CL Brener)) (UniProt Q4DSP6)
Sequence (Q4DSP6 as listed by the source): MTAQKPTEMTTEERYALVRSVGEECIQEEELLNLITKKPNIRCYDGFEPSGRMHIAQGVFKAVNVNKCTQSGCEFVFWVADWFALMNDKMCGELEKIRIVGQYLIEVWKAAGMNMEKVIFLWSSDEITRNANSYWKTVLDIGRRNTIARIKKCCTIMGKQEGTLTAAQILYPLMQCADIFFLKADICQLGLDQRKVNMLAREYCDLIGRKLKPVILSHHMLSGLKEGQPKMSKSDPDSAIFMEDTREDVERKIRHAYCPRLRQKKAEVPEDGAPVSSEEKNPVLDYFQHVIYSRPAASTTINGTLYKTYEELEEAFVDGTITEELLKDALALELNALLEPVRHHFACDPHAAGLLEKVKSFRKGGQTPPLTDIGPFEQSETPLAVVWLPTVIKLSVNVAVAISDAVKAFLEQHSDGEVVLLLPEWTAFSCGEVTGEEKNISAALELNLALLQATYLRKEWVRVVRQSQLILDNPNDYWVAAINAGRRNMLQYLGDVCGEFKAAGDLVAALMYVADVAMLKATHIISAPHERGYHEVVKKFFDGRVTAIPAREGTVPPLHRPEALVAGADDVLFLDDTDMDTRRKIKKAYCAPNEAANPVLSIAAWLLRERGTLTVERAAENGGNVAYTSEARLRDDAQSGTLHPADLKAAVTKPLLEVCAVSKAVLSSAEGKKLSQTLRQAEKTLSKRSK
Experiment: Trypanosoma cruzi tyrosyl tRNA synthetase (TcYRS) _High Tyrosine SOP; note: in the data most compounds retested in dose-response had high values
Assay type: functional
Parameters: scale not given: direction of the effect not stated beside the values
Conditions: 30 µM
Property: Percent Effect (%)
State just the number; it will be interpreted in %.

Using the record for CCn1nc(C)c(CNC(=O)c2cn(CC3CCCO3)nn2)c1C (stereo unspecified) , report its Percent Effect.
6.01

Next record, please: Cc1cc(C(=O)N2CCN(C(=O)Cc3ccccn3)CC2)c(C)s1
7.29

Same lookup for CCc1nc(CN2CCCN(c3nc4ccccc4o3)CC2)no1 , please.
4.3

Try this compound too: CNC(=O)c1cc2c(nc1N(C)C)CCN(S(=O)(=O)C1CC1)CC2
-3.17

What do you have for Cc1ccc(CN2CC[C@H]3OCC[C@@H](C(=O)NC4CC4)[C@@H]3C2)o1 ?
-1.08

// same read-out, input: CCN(Cc1ccc(OC)c(F)c1)C(=O)c1ccc(C)[nH]c1=O
8.33

----------
Organism: Homo sapiens
Assay: To identify inhibition of the IFN signalling (Jak-Stat) pathway via expression of an eGFP reporter gene under the control of an IFN-stimulated response element (ISRE) containing MxA promoter.
Type: functional
Set-up: scale not given: direction of the effect not stated beside the values
Settings: 30 µM
Provide the recorded Percent Effect for the entries that follow.
State just the number; it will be interpreted in %.

So what does the record say about Percent Effect for COCCN1CCN(C(=O)c2cc(C(C)C)on2)[C@H]2CS(=O)(=O)C[C@H]21 ?
-5.77

Another: CC(=O)N(Cc1ncc(C)o1)C1CCN(Cc2noc(C)n2)C1 (stereo unspecified)
1.88

Check CC(Cn1cccn1)NC(=O)Nc1nnc(C2CC2)s1 (stereo unspecified) too.
10.7

Next compound: O=C(Cc1cccc(F)c1)NCCNCc1cccc(O)c1
3.07

Item: CCOCC(=O)N1C[C@@H](NC(C)=O)[C@H](c2ccc(OC)cc2)C1
14.1

// same read-out, input: Cc1cnn(CC2CCCN2Cc2nnsc2Cl)c1 (stereo unspecified)
28.5

----------
Target: Arginase-2, mitochondrial (Homo sapiens)
Assay: in vitro enzyme assay to detect the production of urea directly proportional to the activity of Arginase II; note: in the data most compounds retested in dose-response had high values
Type: functional
Set-up: scale not given: direction of the effect not stated beside the values
Conditions: 33.3 µM
Property: Percent Effect (%)
Write it as a number; the unit % goes unstated.

Which Percent Effect value belongs to Cc1nc(C)n(CC2CN(c3ncccn3)Cc3nccn3C2)n1 (configuration not stated) ?
-2.73

Continue with Cc1cc(S(=O)(=O)Nc2cccc(-n3cccc3)c2)sc1C(=O)O
-0.248

Next entry: O=C(CN1CCOC(Cn2cccn2)C1)NCCc1ccc(F)cc1 (configuration not stated)
-0.554

Ok, now O=C(O)CC1CN(Cc2ccccc2)CCO1 (configuration not stated)
2.08

And for CCOCC(=O)N1C[C@@H](NC(C)=O)[C@H](c2ccc(OC)cc2)C1 ?
18.8

Moving on to the next compound: Cc1cc(C[S+]([O-])CC(=O)NCC(C)C)no1 (configuration not stated)
-2.49

Another compound to check: CN(C)CC(=O)N1CCCC2(CCC(=O)N(CCc3c[nH]cn3)C2)C1 (configuration not stated)
-45.5

Then what about the compound O=C(NCCNC(=O)N1CCC(c2ccccc2)C1)C1CC1 (configuration not stated) ?
2.38

What do you get for Cc1ccc(-c2cc(CNC(=O)N3CCC(CO)CC3)on2)cc1 ?
-0.185

Same for CC(C)n1ccnc1C1CCN(Cc2ccc(Cl)s2)CC1
6.9

How about this compound: Cc1nn(C)c(C)c1CC(=O)N1CCC(Nc2cccnn2)CC1
-1.92

Try this compound next: Cn1cc(CCNC(=O)NC2CCS(=O)(=O)C2)cn1 (configuration not stated)
-0.442
